// data source = patent US20220356245A1

- tested target: T1, human CD47 (hCD47) expressed on cells (human, UniProt Q08722 19-323)
- T1 construct: Transfected CHO cells or endogenous CD47 of human cells; also called CHO-hCD47; CD47 on Raji cells
- experiment description: flow cytometry, Raji cells
Reported EC50 values are given for each entry in this list.
Give the quantity in µg/mL, number only.

h20-VH4-VL4 (candidate 20.19) (antibody, human IgG4 S228P, kappa, V domains shown, hIgG4-S228P/kappa; also called h20-H4-L4) VH: QVQLVQSGAEVKKPGSSVKVSCKASGYSFTDYYINWVRQAPGQGLEWMGRIYPGIGNTYYNKKFKGRVTITADKSTSTAYMELSSLRSEDTAVYYCARGHYGRGMDYWGQGTTVTVSS VL: DIVMTQSPDSLAVSLGERATINCKSSQSLLNSIDQKNYLAWYQQKPGQPPKLLIYFASTKESGVPDRFSGSGSGTDFTLTISSLQAEDVAVYFCQQHYSTPWTFGGGAKVEIKR = 0.139

Can you look up the measured EC50 of h20-VH4-VL3 (candidate 20.18) (antibody, human IgG4 S228P, kappa, V domains shown, hIgG4-S228P/kappa; also called h20-H4-L3) VH: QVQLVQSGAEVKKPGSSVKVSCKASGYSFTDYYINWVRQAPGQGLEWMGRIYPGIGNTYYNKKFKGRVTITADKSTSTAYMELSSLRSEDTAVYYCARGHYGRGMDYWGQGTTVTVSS VL: EIVLTQSPDSLAVSLGERATINCKSSQSLLNSIDQKNYLAWYQQKAGQSPKLLIYFASTKESGVPDRFSGSGSGTDFTLTIDSLQAEDVAVYYCQQHYSTPWTFGGGTKVEIKR for me? 0.164
